Test system: A549
Assay: NCI tumour cell line growth inhibition, 48 h
Structures can show the parent of a compound that is named as a salt. Active and inactive are the calls of the source. No stated cut-off is given here; in the data, active = GI50 up to about 1.1 µM and inactive = higher.
Quick reference: GI50 of the listed items.

[[record]]
compound = "NCCS [CYSTEAMINE HYDROCHLORIDE]"
result = "> 100 µM (inactive)"

[[record]]
compound = "COc1cc2c(cc1OC)C13CCN4CC5=CCOC(CC(=O)O)C(C5CC41)C3N2 (configuration not stated)"
result = "> 100 µM (inactive)"

[[record]]
compound = "CCNCC(O)COc1ccc2c(c1)[n+]([O-])nc(N)[n+]2[O-] (configuration not stated)"
result = "24.2 µM (inactive)"

[[record]]
compound = "COC(=O)C1C(=O)C(C(=O)OC)C2CCC1N2C (configuration not stated)"
result = "> 100 µM (inactive)"

[[record]]
compound = "C#CCNC(=O)CCC(N)C(=O)O (configuration not stated)"
result = "> 100 µM (inactive)"


Record COc1cc(CNc2nc3c(NC(C)=O)cc(C(F)(F)F)cc3nc2-c2ccccc2)cc(OC)c1OC . Reported GI50: > 100 µM (inactive)

// CC(=S)NC=C(C(N)=O)C(N)=O : GI50 value = > 100 µM (inactive)

Please fill in: GI50 reported for Cn1nc(C(=O)N2CC(CCl)c3c2cc([N+](=O)[O-])c2ccccc32)cc1NC(=O)Nc1cc(C(=O)N2CC(CCl)c3c2cc([N+](=O)[O-])c2ccccc32)nn1C (configuration not stated) = > 100 µM (inactive)

Record summary for COc1ccc(/C=C2\CCC(CCN(C)C)(C3=CCCC3)C2=O)cc1Br (configuration not stated) : reported GI50 = 8.32 µM (inactive)

GI50 recorded for this compound, COC(=O)C1(SC)C2CCC3C2CCC31 (configuration not stated) , is > 100 µM (inactive)

Item: O=C1CCC2(c3ccc(F)cc3)Nc3cc(Cl)ccc3N12 (configuration not stated) | GI50: 59.4 µM (inactive)

Quick note, GI50 for NCCOCn1cc(Cc2cccc(OCc3ccccc3)c2)c(=O)[nH]c1=O landed at > 100 µM (inactive)

Entry COc1ccc([C@H]2[C@H](C)C3=Nc4ccccc4CN32)cc1 , GI50 reported as 55.1 µM (inactive)
